biological target: human chemokine receptor CCR3 (Homo sapiens); construct: expressed in transfected cells; host or cells: K562 cell line (hCCR3-C1 cells), membrane preparation; test: CCR3 receptor binding assay (SPA, 125I-eotaxin-1 displacement, hCCR3-C1 K562 cell membranes); settings: 1 μM test compound; human Eotaxin-1 at human CCR3-Rezeptor; read-out: CCR3 % inh @ 1 μM
Sequence (P51677 whole entry): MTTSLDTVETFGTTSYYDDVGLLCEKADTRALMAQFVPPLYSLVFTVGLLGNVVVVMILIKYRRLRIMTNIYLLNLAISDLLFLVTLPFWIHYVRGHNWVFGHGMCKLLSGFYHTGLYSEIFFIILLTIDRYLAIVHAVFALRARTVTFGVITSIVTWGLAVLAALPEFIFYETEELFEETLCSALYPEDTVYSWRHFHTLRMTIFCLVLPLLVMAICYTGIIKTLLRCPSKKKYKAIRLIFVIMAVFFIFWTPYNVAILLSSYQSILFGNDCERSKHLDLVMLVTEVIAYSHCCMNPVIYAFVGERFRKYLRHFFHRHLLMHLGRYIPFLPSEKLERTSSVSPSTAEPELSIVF
Assay Endpoint: inhibition at 1 µM (%)
Only the number, expressed in %, is required.

Ask | Field request: inhibition at 1 µM | item: `Cc1cc(CN2CCC(N3C(=O)N(C)C[C@@H]3C(=O)Nc3cc(C4CC4)nn3C)CC2)ccc1Cl`
Reply | 91

Ask | Field request: inhibition at 1 µM | item: COCC(NC(=O)C1CCC(=O)N1C1CCN(Cc2ccc(Cl)c(C)c2)CC1)c1nc2ccc(Cl)cc2[nH]1 (centres unmarked)
Reply | 52

Ask | Field request: inhibition at 1 µM | item: `Cc1cc(CN2CCC(N3C(=O)CC[C@H]3C(=O)NCc3ccnn3C)CC2)ccc1Cl`
Reply | 50

Ask | Field request: inhibition at 1 µM | item: `CNC(=O)c1cc(Cl)cc(NC(=O)[C@H]2CCC(=O)N2C2CCN(Cc3ccc(Cl)c(C)c3)CC2)c1`
Reply | 99

Ask | Field request: inhibition at 1 µM | item: Cc1cc(CN2CCC(N3C(=O)CCC3C(=O)Nc3cc(-c4c(C)noc4C)ccn3)CC2)ccc1Cl (centres unmarked)
Reply | 96

Ask | Field request: inhibition at 1 µM | item: `Cc1cc(CN2CCC(N3C(=O)CC[C@@H]3C(=O)Nc3cc(C(=O)N4CCOCC4)ccn3)CC2)ccc1Cl`
Reply | 97

Ask | Field request: inhibition at 1 µM | item: `CCNC(=O)c1cc(NC(=O)[C@H]2CCC(=O)N2C2CCN(Cc3ccc(Cl)c(C)c3)CC2)ccc1C`
Reply | 90

Ask | Field request: inhibition at 1 µM | item: Cc1cc(CN2C3CCC2CC(N2C(=O)CC[C@@H]2C(=O)Nc2cccc(N(CC(=O)N(C)C)S(=O)(=O)C4CC4)c2)C3)ccc1Cl (some centres unmarked)
Reply | 94

Ask | Field request: inhibition at 1 µM | item: `CCNS(=O)(=O)c1cccc(NC(=O)[C@H]2CCC(=O)N2C2CCN(Cc3ccc(Cl)c(Cl)c3)CC2)c1`
Reply | 100

Ask | Field request: inhibition at 1 µM | item: `COC(=O)c1ccc2c(c1)CCN(C(=O)[C@H]1CCC(=O)N1C1CCN(Cc3ccc(Cl)c(C)c3)CC1)C2`
Reply | 51

Ask | Field request: inhibition at 1 µM | item: `Cc1cc(CN2CCC(N3C(=O)CC[C@@H]3C(=O)Nc3ccc4[nH]ncc4c3)CC2)ccc1Cl`
Reply | 93

Ask | Field request: inhibition at 1 µM | item: `CCNS(=O)(=O)c1cccc(NC(=O)[C@H]2CCC(=O)N2C2CCN(Cc3ccc(Cl)c(C)c3)CC2)c1`
Reply | 99

Ask | Field request: inhibition at 1 µM | item: `CNC(=O)c1cccc(NC(=O)[C@H]2CCC(=O)N2C2CCN(Cc3ccc(Cl)s3)CC2)c1`
Reply | 77

Ask | Field request: inhibition at 1 µM | item: Cc1cc(CN2CCC(N3C(=O)CC[C@@H]3C(=O)NC3CCC(NS(=O)(=O)c4ccccc4)CC3)CC2)ccc1Cl (some centres unmarked)
Reply | 94

Ask | Field request: inhibition at 1 µM | item: `Cc1cc(CN2CCC(N3C(=O)CC[C@@H]3C(=O)Nc3cccc(C(=O)N(C)CCO)c3)CC2)ccc1Cl`
Reply | 96

Ask | Field request: inhibition at 1 µM | item: `Cc1cc(CN2CCC(N3C(=O)CC[C@H]3C(=O)N3CCc4ccc(F)cc4C3)CC2)ccc1Cl`
Reply | 48

Ask | Field request: inhibition at 1 µM | item: COc1ccccc1C1CCCN(C(=O)[C@H]2CCC(=O)N2C2CCN(Cc3ccc(Cl)c(C)c3)CC2)C1 (some centres unmarked)
Reply | 59

Ask | Field request: inhibition at 1 µM | item: `Cc1cc(CN2CCC(N3C(=O)CC[C@@H]3C(=O)Nc3cc(C(=O)N(C)C)cc(-c4nnnn4C)c3)CC2)ccc1Cl`
Reply | 98

Ask | Field request: inhibition at 1 µM | item: `Cc1nccc(-c2cccc(NC(=O)[C@H]3CCC(=O)N3C3CCN(Cc4ccc(Cl)c(C)c4)CC3)c2)n1`
Reply | 99

Ask | Field request: inhibition at 1 µM | item: `Cc1cc(NC(=O)[C@H]2CCC(=O)N2C2CCN(Cc3ccc(Cl)c(C)c3)CC2)cc(-c2nnnn2C)c1`
Reply | 99

Ask | Field request: inhibition at 1 µM | item: `CCS(=O)(=O)N(CC(=O)N(C)C)c1cccc(NC(=O)[C@H]2CCC(=O)N2C2CCN(Cc3ccc(Cl)c(C)c3)CC2)c1`
Reply | 96

Ask | Field request: inhibition at 1 µM | item: `Cc1nnc(NC(=O)c2cccc(NC(=O)[C@H]3CCC(=O)N3C3CCN(Cc4ccc(Cl)c(C)c4)CC3)c2)s1`
Reply | 98

Ask | Field request: inhibition at 1 µM | item: `Cc1cc(CN2CCC(N3C(=O)OC[C@H]3C(=O)Nc3cc(C4CC4)nn3C)CC2)ccc1Cl`
Reply | 98

Ask | Field request: inhibition at 1 µM | item: `CN1C[C@H](C(=O)Nc2cc(C3CC3)nn2C)N(C2CCN(Cc3ccc(Cl)c(C(F)(F)F)c3)CC2)C1=O`
Reply | 66

Ask | Field request: inhibition at 1 µM | item: `COC(=O)c1cc(NC(=O)[C@H]2CCC(=O)N2C2CCN(Cc3ccc(Cl)c(C)c3)CC2)cc(C(=O)N(C)C)c1`
Reply | 98

Ask | Field request: inhibition at 1 µM | item: `Cc1cc(CN2CCC(N3C(=O)CC[C@H]3C(=O)NC3CCN(c4ccccn4)CC3)CC2)ccc1Cl`
Reply | 65

Ask | Field request: inhibition at 1 µM | item: `Cc1cc(C(=O)N2CCCC2)cc(NC(=O)[C@H]2CCC(=O)N2C2CCN(Cc3ccc(Cl)c(C)c3)CC2)n1`
Reply | 102

Ask | Field request: inhibition at 1 µM | item: `Cc1cc(CN2CCC(N3C(=O)CC[C@@H]3C(=O)NCc3cccc4[nH]ccc34)CC2)ccc1Cl`
Reply | 48

Ask | Field request: inhibition at 1 µM | item: `Cc1cc(CN2CCC(N3C(=O)N(C)C[C@@H]3C(=O)Nc3cccc(-c4ccncc4)c3)CC2)ccc1Cl`
Reply | 95
